Reported Emax values follow for various compounds
- target: human sphingosine-1-phosphate receptor 1 (S1P1) (Homo sapiens (Human))
- Sequence (P21453 whole entry, looked up): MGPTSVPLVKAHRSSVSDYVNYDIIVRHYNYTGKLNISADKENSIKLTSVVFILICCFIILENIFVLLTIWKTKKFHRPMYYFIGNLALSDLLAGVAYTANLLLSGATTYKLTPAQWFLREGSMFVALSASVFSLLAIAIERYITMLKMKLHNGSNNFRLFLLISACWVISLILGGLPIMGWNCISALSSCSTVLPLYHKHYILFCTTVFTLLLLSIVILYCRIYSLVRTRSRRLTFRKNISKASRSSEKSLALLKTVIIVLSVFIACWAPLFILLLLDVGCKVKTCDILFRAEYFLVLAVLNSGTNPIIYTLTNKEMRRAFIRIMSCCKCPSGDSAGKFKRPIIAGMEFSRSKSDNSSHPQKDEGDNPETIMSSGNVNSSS
- method description: Inhibition of cAMP production (HTRF cAMP HiRange), S1P1 CHO-K1 cells
- Format: cell-based
- experimental parameters: CHO-K1; efficacy (SPAN) normalized to fingolimod; read-out: hS1P1 cAMP SPAN
- Procedure: Stable clonal Chinese hamster ovary K1 (CHO-K1) cells co-expressing EA-β-arrestin2 and the human sphingosine-1-phosphate receptor 1 (NM_001400, S1P1) with a C-terminal Prolink™ tag were purchased from DiscoverX corporation (Cat #: 93-0207C2). […] Agonist-promoted G-protein responses were determined by measuring changes in intracellular cAMP using the HTRF® cAMP HiRange kit (CisBio, Cat #: 62AM6PEJ) based on time-resolved fluorescence resonance energy transfer (TR-FRET) technology. […]
readout: Emax

CCC1(CC)CC(=O)c2cc(-c3nc(-c4cncc(O)c4)no3)ccc2O1 [Compound 310]
> 75%
CCC1(CC)CC(=O)c2cc(-c3nc(-c4ccc5sc(N)nc5c4)no3)ccc2O1 [Compound 446]
< 75%
Cc1cc(-c2nc(-c3ccc4c(c3)nnn4C(C)C)no2)cc(C)n1 [Compound 156]
> 75%
Cc1ccncc1-c1noc(-c2ccc3c(c2)nnn3C2CCOCC2)n1 [Compound 439]
> 75%
CCC1(CC)CC(=O)c2cc(-c3nc(-c4ccc(NC(C)=O)cc4OC(F)(F)F)no3)ccc2O1 [Compound 584]
> 75%
COc1ccccc1-c1nnc(-c2ccc3c(c2)oc(=O)n3C)o1 [Compound 350]
< 75%
